- assay-system: Adenosine A2A receptor (Homo sapiens, UniProt P29274)
- Sequence (P29274 whole entry): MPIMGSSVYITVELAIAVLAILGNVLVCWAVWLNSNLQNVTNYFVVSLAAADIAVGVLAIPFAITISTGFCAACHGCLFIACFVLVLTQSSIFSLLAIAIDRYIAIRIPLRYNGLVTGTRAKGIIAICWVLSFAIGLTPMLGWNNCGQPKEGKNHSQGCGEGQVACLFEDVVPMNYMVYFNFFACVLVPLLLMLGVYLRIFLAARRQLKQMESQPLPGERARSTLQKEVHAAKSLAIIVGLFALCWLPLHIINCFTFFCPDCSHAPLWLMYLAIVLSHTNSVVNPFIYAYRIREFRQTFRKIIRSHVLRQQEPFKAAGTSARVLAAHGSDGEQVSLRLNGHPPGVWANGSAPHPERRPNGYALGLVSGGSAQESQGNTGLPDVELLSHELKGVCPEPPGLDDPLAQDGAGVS
- measurement-notes: cAMP assay in 293A cells stably expressing the adenosine A2A receptor (CGS21680 stimulation, HTRF)
- Type: cell-based
- Parameters: expressed in transfected cells; host or cells: 293A cells (Invitrogen, Cat# R705-07) infected with A2A-expressing lentivirus (custom packaged by Biosettia), puromycin selected
- condition-summary: 293A-A2AR cells, 0.1% BSA, 1 uM CGS; read-out: cAMP (nM) 0.1% BSA, 1 uM CGS

smiles-data	IC50
Cc1cc(-c2c(OCCOc3ncccc3C(=O)O)nc(N)nc2-c2ccc(F)cc2)cc(C(F)F)n1	> 25000 nM
Cc1cc(-c2c(OCc3cc(C(C)(C)C#N)ccn3)nc(N)nc2-c2cccc(C#N)c2C)cc(C(F)F)n1	2190 nM
CCn1c(COc2nc(N)nc(-c3ccc(F)cc3)c2-c2cc(C)nc(C(F)F)c2)nc2ccc(C(C)(C)C(=O)O)nc21	> 25000 nM
Cc1cc(-c2c(OCCn3cccc(C(=O)O)c3=O)nc(N)nc2-c2ccc(F)cc2)cc(C(F)F)n1	> 25000 nM
